PROTOCOL_TEXT: in vivo;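 further: plasma drug concentrations quantified by liquid chromatography with tandem mass spectrometry following solid phase extraction, reported as mean ± SEM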
CONDITION_CONTEXT: male, F344, rat, plasma, oral, 100 ppm in diet
Structures can show the parent of a compound that is named as a salt.
METRIC_NAME: concentration at 9 weeks on diet

Exam item: Look at this compound and give its reported concentration at 9 weeks on diet. CC(=N)NCCCC[C@H](N)C(=O)Nc1nnn[nH]1 [compound XI, hydrate, dihydrochloride]
Marked response: 2640 ng/mL

====

PROTOCOL_TEXT: in vivo
CONDITION_CONTEXT: male, F344, rat, plasma, oral, 100 ppm in diet
Structures can show the parent of a compound that is named as a salt.
METRIC_NAME: concentration at 5 weeks on diet
Express the reported value numerically, then name its unit.

Exam item: Look at this compound and give its reported concentration at 5 weeks on diet. CC(=N)NCCCC[C@H](N)C(=O)Nc1nnn[nH]1 [compound XI, hydrate, dihydrochloride]
Marked response: 2810 ng/mL

====

PROTOCOL_TEXT: in vivo
CONDITION_CONTEXT: male, F344, rat, plasma, oral, 100 ppm in diet
Structures can show the parent of a compound that is named as a salt.
METRIC_NAME: concentration at 1 week on diet (ng/mL)
Entry rule: numbers only, all in ng/mL.

Exam item: Look at this molecule and give its reported concentration at 1 week on diet. CC(=N)NCCCC[C@H](N)C(=O)Nc1nnn[nH]1 [compound XI, hydrate, dihydrochloride]
Marked response: 4310
